Tested on: BT-20
protocol_details: Proliferation-inhibiting effect on tumor cells (SRB or MTT assay)
Assay type: cell-based
condition: Homo sapiens, BT-20, 144 h, read-out: IC50 (nM) 2nd experiment
quantity_name: IC50 (nM)

molecule="CC[C@@]1(O)C(=O)OCc2c1cc1n(c2=O)Cc2c-1nc1ccc(N)c3c1c2C(F)(F)CC3 [Compound 3]" val=0.5

====

Test system: BxPC-3
protocol_details: Proliferation-inhibiting effect on tumor cells (SRB or MTT assay)
Type: cell-based
condition: Homo sapiens, BXPC-3, 144 h, read-out: IC50 (nM) 1st experiment
Protocol: For cells growing by adherence, SRB assay was used to detect effect of antibody-drug conjugates or camptothecins on the proliferation of tumor cells in vitro cultured. […] OD values at 510 nm were read on a microplate reader. […] Half maximal inhibitory concentration (IC50) was calculated from the inhibition (%) at those different concentrations using the software Graphpad Prism 8.0. The experiment was repeated once and the data was expressed as mean±SD.
quantity_name: IC50 (nM)

compound="CC[C@@]1(O)C(=O)OCc2c1cc1n(c2=O)Cc2c-1nc1ccc(N)c3c1c2C(F)(F)CC3 [Compound 3]" val=0.2
